assay: Inhibition of Aspergillus oryzae alpha-amylase in presence of 1% starch incubated for 10 mins
measure.name: IC50 (µg/mL)

• Cc1ccc(-c2nn(-c3nc4c(C)cccc4s3)c3c2C(=O)c2ccccc2-3)cc1 = 165.59
• O=C1c2ccccc2-c2c1c(-c1cccc(Cl)c1)nn2-c1nc2ccc(F)cc2s1 = 190.98
• Cc1cccc2sc(-n3nc(-c4ccc(Cl)cc4)c4c3-c3ccccc3C4=O)nc12 = 92.99
• O=C1c2ccccc2-c2c1c(-c1ccccc1)nn2-c1nc2ccc(F)cc2s1 = 98.42

(A) Cc1cccc2sc(-n3nc(-c4cccc(Br)c4)c4c3-c3ccccc3C4=O)nc12
(B) Cc1cccc(-c2nn(-c3nc4ccc(F)cc4s3)c3c2C(=O)c2ccccc2-3)c1
Q. # return whichever of A and B has the smaller IC50 // respond with label for picked entry
A. B

---

assay: Inhibition of Aspergillus oryzae alpha-amylase in presence of 1% starch incubated for 10 mins
measure.name: IC50 (µg/mL)

• Cc1cccc2sc(-n3nc(-c4ccc(Br)cc4)c4c3-c3ccccc3C4=O)nc12 = 132.41
• COc1ccc(-c2nn(-c3nc4c(C)cccc4s3)c3c2C(=O)c2ccccc2-3)cc1 = 161.92
• O=C1c2ccccc2-c2c1c(-c1cccc(Br)c1)nn2-c1nc2ccc(F)cc2s1 = 192.95
• O=C1c2ccccc2-c2c1c(-c1ccc(F)cc1)nn2-c1nc2ccc(F)cc2s1 = 144.106
• Cc1cccc2sc(-n3nc(-c4ccccc4)c4c3-c3ccccc3C4=O)nc12 = 167.48

---

test: Inhibition of Aspergillus oryzae alpha-amylase in presence of 1% starch incubated for 10 mins
measure.name: IC50 (µg/mL)

* O=C1c2ccccc2-c2c1c(-c1ccc(Br)cc1)nn2-c1nc2ccc(F)cc2s1 | 196.85

(I) Cc1cccc(-c2nn(-c3nc4c(C)cccc4s3)c3c2C(=O)c2ccccc2-3)c1
(II) Cc1ccc(-c2nn(-c3nc4ccc(F)cc4s3)c3c2C(=O)c2ccccc2-3)cc1
Q. Compare I and II by numeric IC50 and name the larger one. // respond with label for picked entry
A. I
(I: 198.33 µg/mL, II: 135.14 µg/mL)
